The reported measurements were obtained from patent US5185320A.

Tested on: Neisseria gonorrhoeae ISM68/126
assay.summary: MIC, standard dilution test, Neisseria gonorrhoeae ISM68/126
Format: cell-based
condition: inoculum about 10^4 CFU/ml, 18-24 h at 37° C.
Assign Minimal inhibitory concentration (MIC) to each entry below.
Just the number, please.

Inquiry: Record COC(=O)C1NC(=O)C2NC(=O)C(NC(=O)C3NC(=O)C4NC(=O)C(Cc5ccc(c(Cl)c5)Oc5cc3cc(c5OCCO)Oc3ccc(cc3Cl)C2O)NC(=O)C(N)c2ccc(O)c(c2)Oc2cc(O)cc4c2)c2ccc(O)c(c2)-c2c(O)cc(O)cc21 (centres unmarked) [Compound 8] : what is its Minimal inhibitory concentration (MIC) with Neisseria gonorrhoeae ISM68/126?
Reply text: 32

Inquiry: Record COC(=O)C1NC(=O)C2NC(=O)C(NC(=O)C3NC(=O)C4NC(=O)C(Cc5ccc(c(Cl)c5)Oc5cc3cc(c5OCCN3CCCC3)Oc3ccc(cc3Cl)C2O)NC(=O)C(N)c2ccc(O)c(c2)Oc2cc(O)cc4c2)c2ccc(O)c(c2)-c2c(O)cc(O)cc21.Cl.Cl (centres unmarked) [Compound 13] : what is its Minimal inhibitory concentration (MIC) with Neisseria gonorrhoeae ISM68/126?
Reply text: 32

----------
Test system: Strep. pneumoniae UC41
assay.summary: MIC, standard dilution test, Strep. pneumoniae UC41
Type: cell-based
condition: inoculum about 10^4 CFU/ml, 18-24 h at 37° C.
Assign Minimal inhibitory concentration (MIC) to each entry below.
Just the number, please.

Inquiry: Record NCCNCCOc1c2cc3cc1Oc1ccc(cc1Cl)C(O)C1NC(=O)C(NC(=O)C3NC(=O)C3NC(=O)C(Cc4ccc(c(Cl)c4)O2)NC(=O)C(N)c2ccc(O)c(c2)Oc2cc(O)cc3c2)c2ccc(O)c(c2)-c2c(O)cc(O)cc2C(C(=O)NCCN)NC1=O (stereo not shown) [Compound 15] : what is its Minimal inhibitory concentration (MIC) with Strep. pneumoniae UC41?
Reply text: 0.125

Inquiry: Record COC(=O)C1NC(=O)C2NC(=O)C(NC(=O)C3NC(=O)C4NC(=O)C(Cc5ccc(c(Cl)c5)Oc5cc3cc(c5OCCN3CCOCC3)Oc3ccc(cc3Cl)C2O)NC(=O)C(N)c2ccc(O)c(c2)Oc2cc(O)cc4c2)c2ccc(O)c(c2)-c2c(O)cc(O)cc21.Cl.Cl (stereo not shown) [Compound 14] : what is its Minimal inhibitory concentration (MIC) with Strep. pneumoniae UC41?
Reply text: 0.125

Inquiry: Record COC(=O)C1NC(=O)C2NC(=O)C(NC(=O)C3NC(=O)C4NC(=O)C(Cc5ccc(c(Cl)c5)Oc5cc3cc(c5OC(CCO)C(=O)O)Oc3ccc(cc3Cl)C2O)NC(=O)C(N)c2ccc(O)c(c2)Oc2cc(O)cc4c2)c2ccc(O)c(c2)-c2c(O)cc(O)cc21.Cl (stereo not shown) [Compound 3] : what is its Minimal inhibitory concentration (MIC) with Strep. pneumoniae UC41?
Reply text: 0.125

Inquiry: Record COC(=O)C1NC(=O)C2NC(=O)C(NC(=O)C3NC(=O)C4NC(=O)C(Cc5ccc(c(Cl)c5)Oc5cc3cc(c5OCCN3CCCC3)Oc3ccc(cc3Cl)C2O)NC(=O)C(N)c2ccc(O)c(c2)Oc2cc(O)cc4c2)c2ccc(O)c(c2)-c2c(O)cc(O)cc21.Cl.Cl (stereo not shown) [Compound 13] : what is its Minimal inhibitory concentration (MIC) with Strep. pneumoniae UC41?
Reply text: 0.25

Inquiry: Record NCCNC(=O)C(CCO)OC(=O)C1NC(=O)C2NC(=O)C(NC(=O)C3NC(=O)C4NC(=O)C(Cc5ccc(c(Cl)c5)Oc5cc3cc(c5OC(CCO)C(=O)NCCN)Oc3ccc(cc3Cl)C2O)NC(=O)C(N)c2ccc(O)c(c2)Oc2cc(O)cc4c2)c2ccc(O)c(c2)-c2c(O)cc(O)cc21 (stereo not shown) [Compound 24] : what is its Minimal inhibitory concentration (MIC) with Strep. pneumoniae UC41?
Reply text: 0.25

Inquiry: Record CNC(=O)C1NC(=O)C2NC(=O)C(NC(=O)C3NC(=O)C4NC(=O)C(Cc5ccc(c(Cl)c5)Oc5cc3cc(c5OCCCCN)Oc3ccc(cc3Cl)C2O)NC(=O)C(N)c2ccc(O)c(c2)Oc2cc(O)cc4c2)c2ccc(O)c(c2)-c2c(O)cc(O)cc21 (stereo not shown) [Compound 9] : what is its Minimal inhibitory concentration (MIC) with Strep. pneumoniae UC41?
Reply text: 0.125

Inquiry: Record Cl.NC1C(=O)NC2Cc3ccc(c(Cl)c3)Oc3cc4cc(c3OCCBr)Oc3ccc(cc3Cl)C(O)C3NC(=O)C(NC(=O)C4NC(=O)C(NC2=O)c2cc(O)cc(c2)Oc2cc1ccc2O)c1ccc(O)c(c1)-c1c(O)cc(O)cc1C(C(=O)OCCBr)NC3=O (stereo not shown) [Compound 17] : what is its Minimal inhibitory concentration (MIC) with Strep. pneumoniae UC41?
Reply text: 0.5

Inquiry: Record NC1C(=O)NC2Cc3ccc(c(Cl)c3)Oc3cc4cc(c3OC3CCOC3=O)Oc3ccc(cc3Cl)C(O)C3NC(=O)C(NC(=O)C4NC(=O)C(NC2=O)c2cc(O)cc(c2)Oc2cc1ccc2O)c1ccc(O)c(c1)-c1c(O)cc(O)cc1C(C(=O)O)NC3=O (stereo not shown) [Compound 16] : what is its Minimal inhibitory concentration (MIC) with Strep. pneumoniae UC41?
Reply text: 0.25

Inquiry: Record COC(=O)C1NC(=O)C2NC(=O)C(NC(=O)C3NC(=O)C4NC(=O)C(Cc5ccc(c(Cl)c5)Oc5cc3cc(c5OCCCl)Oc3ccc(cc3Cl)C2O)NC(=O)C(N)c2ccc(O)c(c2)Oc2cc(O)cc4c2)c2ccc(O)c(c2)-c2c(O)cc(O)cc21 (stereo not shown) [Compound 7] : what is its Minimal inhibitory concentration (MIC) with Strep. pneumoniae UC41?
Reply text: 0.125

Inquiry: Record COC(=O)C1NC(=O)C2NC(=O)C(NC(=O)C3NC(=O)C4NC(=O)C(Cc5ccc(c(Cl)c5)Oc5cc3cc(c5OCCCCN(CCN(C)C)CCN(C)C)Oc3ccc(cc3Cl)C2O)NC(=O)C(N)c2ccc(O)c(c2)Oc2cc(O)cc4c2)c2ccc(O)c(c2)-c2c(O)cc(O)cc21 (stereo not shown) [Compound 6] : what is its Minimal inhibitory concentration (MIC) with Strep. pneumoniae UC41?
Reply text: 0.25
